# Assay name: ATG_GAL4_TRANS: Attagene TRANS-FACTORIAL HepG2 Assay for GAL4 (Internal Marker) (AID 2282976)
# Run conditions: HepG2 Attagene TRANS GAL4 internal marker reporter
Results filed as inconclusive are left out. The source made the active and inactive calls. Rule for the calls: active = hit-call score of the fitted dose curve at least 0.9, where 1 is the maximum; inconclusive = response in the unintended direction; inactive = score below 0.9.
Measured parameter: outcome

CC1(C)CCC(=Cc2ccc(Cl)cc2)C1(O)Cn1cncn1 (centres undefined) = inactive
Cc1c(COC(=O)[C@@H]2[C@H](/C=C(\Cl)C(F)(F)F)C2(C)C)cccc1-c1ccccc1 = inactive
COP(=S)(OC)SCn1nnc2ccccc2c1=O = inactive
CC1(C)C(C=C(Cl)Cl)C1C(=O)OC(C#N)c1cccc(Oc2ccccc2)c1 (centres undefined) = inactive
